Reference source: the supplement of paper PMC10126150

I'd be grateful if you could share measured switch fluorescence ratio for these entries.
system: ATP; experiment: switch fluorescence ratio, 500 uM ATP over buffer (Cy3 cluster intensity, sum of 5 cycles each) (fold (ratio)); higher = stronger signal-on switching upon ATP binding; sequences stand for … in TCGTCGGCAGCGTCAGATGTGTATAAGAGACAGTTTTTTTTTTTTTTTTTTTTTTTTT…TC; settings: aptamer strand: ATP DNA aptamer (quencher-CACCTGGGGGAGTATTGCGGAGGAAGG + anchor), 100 nM annealed; ATP concentration: 500 uM;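 further: ATP exposure 15 min at 22 °C before imaging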

So what does the record say about switch fluorescence ratio for `CCAAGGAGGG` ?
0.999

So what does the record say about switch fluorescence ratio for `TTCATGGGGA` ?
0.985

So what does the record say about switch fluorescence ratio for `TATGGTCTTT` ?
0.979

So what does the record say about switch fluorescence ratio for `TTTAAATTTA` ?
1.01

So what does the record say about switch fluorescence ratio for `CCAGACTTTT` ?
0.999

So what does the record say about switch fluorescence ratio for `TTCATGTGAA` ?
1

So what does the record say about switch fluorescence ratio for `GGCGCAAGCT` ?
1.02

So what does the record say about switch fluorescence ratio for `ATGCAGTCTA` ?
1.02

So what does the record say about switch fluorescence ratio for `TAAGTGGAAC` ?
1

So what does the record say about switch fluorescence ratio for `GTTGCAGTTC` ?
1.01

So what does the record say about switch fluorescence ratio for `ATGAAAGTCT` ?
0.976

So what does the record say about switch fluorescence ratio for `TTAATGTTGT` ?
1

So what does the record say about switch fluorescence ratio for `AAAGTTATGT` ?
1

So what does the record say about switch fluorescence ratio for `CGGCCGGACT` ?
1.01

So what does the record say about switch fluorescence ratio for `GTGGGGGAAT` ?
1

So what does the record say about switch fluorescence ratio for `GGTTTACGGT` ?
1.01

So what does the record say about switch fluorescence ratio for `GAAATGGAGG` ?
0.995

So what does the record say about switch fluorescence ratio for `TTTGTTCACG` ?
0.991

So what does the record say about switch fluorescence ratio for `GGGTCATGTT` ?
1

So what does the record say about switch fluorescence ratio for `AAAAAGTTTT` ?
0.985

So what does the record say about switch fluorescence ratio for `TAGTTGATTC` ?
1.01

So what does the record say about switch fluorescence ratio for `AAATGGAGGA` ?
0.988

So what does the record say about switch fluorescence ratio for `CTAATGGAAA` ?
0.998

So what does the record say about switch fluorescence ratio for `TGGGTGGACA` ?
1.02

So what does the record say about switch fluorescence ratio for `TAATATAGTG` ?
1.02

So what does the record say about switch fluorescence ratio for `TAGGGTAAGT` ?
0.99

So what does the record say about switch fluorescence ratio for `AATAAGCTGG` ?
0.984

So what does the record say about switch fluorescence ratio for `GTAGGACGGG` ?
0.995

So what does the record say about switch fluorescence ratio for `TCTAATTGGG` ?
1.01

* * *

tested on: ATP; experiment: switch fluorescence ratio, 500 uM ATP over buffer (Cy3 cluster intensity, sum of 5 cycles each) (fold (ratio)); higher = stronger signal-on switching upon ATP binding; sequences stand for … in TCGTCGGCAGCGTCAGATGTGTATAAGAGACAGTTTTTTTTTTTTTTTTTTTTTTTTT…TC; settings: aptamer strand: ATP DNA aptamer (quencher-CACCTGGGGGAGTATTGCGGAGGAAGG + anchor), 100 nM annealed; ATP concentration: 500 uM;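 further: ATP exposure 15 min at 22 °C before imaging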
observable: switch fluorescence ratio
I'd appreciate a reply containing only the number, no unit.

So what does the record say about switch fluorescence ratio for `CCGTTGACCT` ?
1.07

So what does the record say about switch fluorescence ratio for `GGTCGGGTAT` ?
1.01

So what does the record say about switch fluorescence ratio for `TACGAGTGGT` ?
0.994
